# credit: patent US20190144550A1

# target.entity: T1, Monomeric 8-histidine tagged human EGFRvIII extracellular domain (human, UniProt P00533 298-645)
# T1 construct: Analyte in all SPR assays; not shown: 8-histidine tag
# protocol: SPR, scFv-Fc captured by anti-human Fc, 37 C
Answer each item with its documented koff.
One number for each entry, in s⁻¹.

// solved cases for koff follow
binder	unit.text	koff
h62G7-L6/EQ scFv-Fc protein (Fc fusion, not shown: human IgG1 Fc moiety) DVVMTQSPLSLPVTLGQPASISCKSSQSLLYSNGKTYLNWFQQRPGQSPRRLIYQVSKLDSGVPDRFSGSGSGTDFTLKISRVEAEDVGVYYCGQDTHFPLTFGGGTKVEIKGGGGSGGGGSGGGGSGGGGSQVQLVQSGAEVKKPGASVKVSCKASGYTFTDYTLHWVRQAPGQGLEWMGGIWPITGGTTYNQKFKGRVTMTRDTSTSTVYMELSSLRSEDTAVYYCARGEAQGSWGQGTLVTVSS	s⁻¹	0.076
20B9.HL scFv-Fc protein (Fc fusion, HL: heavy-chain variable domain at the N-terminus; not shown: human IgG1 Fc moiety) QVTLKESGPVLVKPTETLTLTCTVSGFSLSNARMGVSWIRQPPGKALEWLGHIFSTDEKSYSTSLRGRITISKDTSRGLVVLTLTNMDPVDTATYYCARDSSNYEGYFDFWGPGFLVTVSSGGGGSGGGGSGGGGSGGGGSEIVMTQSPATLSVSPGERATLSCRVSQSIGANLAWYQQKFGQAPRLLIYGASTRATGIPVRFSGGGSGTEFTLTISSLQSEDFAIYSCQQYIYWPFTFGPGTTVDIK	s⁻¹	0.0018

(Q) Which koff reading was recorded for the binder 32A10.HL scFv-Fc protein (Fc fusion, HL: heavy-chain variable domain at the N-terminus; not shown: human IgG1 Fc moiety) QVTLKESGPVLVKPTETLTLTCTVSGFSLSNARMGVSWIRQPPGKALEWLAHIFSTDEKSIRRSLRSRLTLSKDTSKSQVVLTMTNMDPVDTATYFCARDSSNYEGYFDYWGQGTLVTVSSGGGGSGGGGSGGGGSGGGGSEVVMTQSPATLSVSPGERVTLSCRASQSVSSNFAWYQQRPGQAPRLLLYGATTRATGLPGRFSGSGSGTENILTISSLQSEDFAIYFCQQYKDWPFTFGPGSKVDIK ?
(A) 0.0012
